Numbers sourced from ChEMBL document CHEMBL1142376.

# Tested on: HL-60
# assay.name: Antiproliferative activity against human HL60 cells at 10 umole
# Type: functional
Define the label as Fulfilled when Activity is strictly less than 30% and as Not fulfilled in all remaining cases.

• CC(C)(C)OC(=O)N[C@@H](Cc1ccccc1)C(=O)N[C@@H](CO)C(=O)N[C@H](/C=C/C(=O)O)Cc1ccc(O)cc1 = Fulfilled
• CCOC(=O)/C=C/[C@H](C[C@@H]1CCNC1=O)NC(=O)[C@@H](NC(=O)[C@@H](NC(=O)OC(C)(C)C)[C@@H](C)CC)[C@@H](C)O = Fulfilled
• CCOC(=O)/C=C/[C@H](Cc1ccc(O)cc1)NC(=O)[C@H](CO)NC(=O)[C@@H](NC(=O)OC(C)(C)C)C(C)C = Fulfilled
• CCOC(=O)/C=C/[C@H](Cc1ccccc1)NC(=O)[C@H](CC(C)C)NC(=O)OC(C)(C)C = Not fulfilled
• CCOC(=O)/C=C/[C@H](Cc1ccccc1)NC(=O)[C@H](CC(C)C)NC(=O)[C@H](CC(C)C)NC(=O)OC(C)(C)C = Fulfilled

###

# System: HL-60
# assay.name: Antiproliferative activity against human HL60 cells at 10 umole
# Format: functional
Define the label as 1 when Activity is strictly less than 20% and as 0 in all remaining cases.

- CCOC(=O)/C=C/[C@H](Cc1ccc(O)cc1)NC(=O)[C@H](CC(C)C)NC(=O)[C@H](CC(C)C)NC(=O)OC(C)(C)C: 1
- CCOC(=O)/C=C/[C@H](C[C@@H]1CCNC1=O)NC(=O)[C@H](Cc1ccc(O)cc1)NC(=O)[C@H](CC(C)C)NC(=O)[C@H](CC(C)C)NC(=O)OC(C)(C)C: 1
- CCOC(=O)/C=C/[C@H](C[C@@H]1CCNC1=O)NC(=O)[C@H](CC(C)C)NC(=O)[C@H](CC(C)C)NC(=O)[C@H](CC(C)C)NC(=O)OC(C)(C)C: 1
- CCOC(=O)/C=C/[C@H](Cc1ccccc1)NC(=O)[C@@H](NC(=O)[C@@H](NC(=O)OC(C)(C)C)[C@@H](C)CC)[C@@H](C)O: 1
- CCOC(=O)/C=C/[C@H](Cc1ccc(O)cc1)NC(=O)[C@@H](NC(=O)[C@@H](NC(=O)OC(C)(C)C)[C@@H](C)CC)[C@@H](C)O: 0
- CCOC(=O)/C=C/[C@H](Cc1ccc(O)cc1)NC(=O)[C@H](CC(C)C)NC(=O)OC(C)(C)C: 1
- CCOC(=O)/C=C/[C@H](Cc1ccc(O)cc1)NC(=O)[C@H](Cc1ccccc1)NC(=O)OC(C)(C)C: 0
- CCOC(=O)/C=C/[C@H](C[C@@H]1CCNC1=O)NC(=O)[C@H](CO)NC(=O)[C@@H](NC(=O)OC(C)(C)C)C(C)C: 1
- CCOC(=O)/C=C/[C@H](Cc1ccccc1)NC(=O)[C@H](Cc1ccccc1)NC(=O)OC(C)(C)C: 0
- CCOC(=O)/C=C/[C@H](C[C@@H]1CCNC1=O)NC(=O)[C@H](CC(C)C)NC(=O)[C@H](CC(C)C)NC(=O)OC(C)(C)C: 0
- CCOC(=O)/C=C/[C@H](Cc1ccccc1)NC(=O)[C@H](CO)NC(=O)[C@@H](NC(=O)OC(C)(C)C)C(C)C: 1
- CCOC(=O)/C=C/[C@H](Cc1ccc(O)cc1)NC(=O)[C@@H](NC(=O)OC(C)(C)C)[C@@H](C)CC: 0
- CCOC(=O)/C=C/[C@H](C[C@@H]1CCNC1=O)NC(=O)[C@H](Cc1ccccc1)NC(=O)[C@H](CC(C)C)NC(=O)OC(C)(C)C: 1
